biological target: mouse DLL3 on CHO-K1-mDLL3 cells (mouse) (UniProt O88516); test: FACS, CHO-K1-mDLL3 cells, 0.00128 nM antibody
Sequence (O88516 other isoform, or with tags, fused parts or gaps limits assumed): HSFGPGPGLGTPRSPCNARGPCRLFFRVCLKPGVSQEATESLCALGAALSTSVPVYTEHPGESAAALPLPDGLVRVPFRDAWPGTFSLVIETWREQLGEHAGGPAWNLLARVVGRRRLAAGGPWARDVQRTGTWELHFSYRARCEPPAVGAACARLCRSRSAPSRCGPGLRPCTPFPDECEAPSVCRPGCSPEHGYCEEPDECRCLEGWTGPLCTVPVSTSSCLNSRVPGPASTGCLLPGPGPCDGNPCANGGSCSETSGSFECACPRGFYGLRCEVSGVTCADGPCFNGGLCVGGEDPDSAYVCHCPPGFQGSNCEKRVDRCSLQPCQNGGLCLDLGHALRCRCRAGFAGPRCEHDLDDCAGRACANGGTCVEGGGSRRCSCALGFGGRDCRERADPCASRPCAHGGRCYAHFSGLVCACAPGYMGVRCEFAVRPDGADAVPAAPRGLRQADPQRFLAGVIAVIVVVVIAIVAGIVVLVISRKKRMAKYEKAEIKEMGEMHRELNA
Recorded MFI, one value per entry.
Output spec: scalar in MFI, unitless text.

These recorded examples may help you get a feel for the data.
Hab014VL2VH1-hFc (scFv, part only; not given: scFv linker and human IgG1 Fc, V domains shown, not shown: another chain or arm of the molecule; a dimerising Fc or GST; small tags and cut ends) VL: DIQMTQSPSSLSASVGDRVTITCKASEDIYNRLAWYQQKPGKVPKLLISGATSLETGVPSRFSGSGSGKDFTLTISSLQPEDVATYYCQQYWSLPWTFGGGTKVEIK VH: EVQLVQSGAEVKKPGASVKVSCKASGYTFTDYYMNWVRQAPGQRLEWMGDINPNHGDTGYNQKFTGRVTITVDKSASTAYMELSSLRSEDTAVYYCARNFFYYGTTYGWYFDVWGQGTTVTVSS ... 109
Hab006VL1VH4-hFc (scFv, part only; not given: VL-VH linker and human IgG1 Fc, V domains shown, not shown: another chain or arm of the molecule; a dimerising Fc or GST; small tags and cut ends) VL: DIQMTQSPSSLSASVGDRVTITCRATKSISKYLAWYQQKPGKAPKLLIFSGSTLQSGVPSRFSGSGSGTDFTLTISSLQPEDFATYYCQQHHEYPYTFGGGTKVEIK VH: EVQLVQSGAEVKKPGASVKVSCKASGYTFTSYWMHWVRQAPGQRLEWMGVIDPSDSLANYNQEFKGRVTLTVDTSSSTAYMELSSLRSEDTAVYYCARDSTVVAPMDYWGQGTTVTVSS ... 126

Q: Any idea what its MFI is? The binder is Hab006VL4VH1-hFc (scFv, part only; not given: scFv linker and human IgG1 Fc, V domains shown, not shown: another chain or arm of the molecule; a dimerising Fc or GST; small tags and cut ends) VL: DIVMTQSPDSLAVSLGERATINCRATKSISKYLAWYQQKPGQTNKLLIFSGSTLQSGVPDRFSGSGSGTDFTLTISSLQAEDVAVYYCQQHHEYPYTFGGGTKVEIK VH: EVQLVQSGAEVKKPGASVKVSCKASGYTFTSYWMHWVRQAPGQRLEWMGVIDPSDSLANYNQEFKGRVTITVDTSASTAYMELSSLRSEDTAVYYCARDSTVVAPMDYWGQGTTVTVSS
Ans: 98
